Please provide measured pKd for the entries that follow.
Biological target: GATA2-Zf;TRβ1 DBD-LBD (TR DL, TRβ1ΔAB) (;human, UniProt P23769;P10828 291-412;102-461, |)
Sequence (P23769 291-412, stated change not applied, chain 1 of 2): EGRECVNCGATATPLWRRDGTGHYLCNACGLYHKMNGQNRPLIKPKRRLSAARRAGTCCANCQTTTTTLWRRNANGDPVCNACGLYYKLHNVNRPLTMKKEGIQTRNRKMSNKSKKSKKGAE
Sequence (P10828 102-461, stated change not applied, chain 2 of 2): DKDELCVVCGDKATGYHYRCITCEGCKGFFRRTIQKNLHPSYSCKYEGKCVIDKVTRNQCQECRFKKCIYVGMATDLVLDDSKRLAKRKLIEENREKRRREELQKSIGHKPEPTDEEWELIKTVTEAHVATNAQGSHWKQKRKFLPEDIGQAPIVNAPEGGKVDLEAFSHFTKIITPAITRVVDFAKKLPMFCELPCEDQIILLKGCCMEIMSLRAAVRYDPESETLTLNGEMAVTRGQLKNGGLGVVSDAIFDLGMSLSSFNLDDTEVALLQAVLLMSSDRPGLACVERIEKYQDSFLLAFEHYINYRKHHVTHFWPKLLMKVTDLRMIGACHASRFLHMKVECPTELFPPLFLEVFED
Assay: fluorescence anisotropy; T3; Hill n 1±0.2; Fluorescence anisotropy: 10 nM DNA, 20 mM Hepes pH 8.0, 50 mM NaCl, 1 mM MgCl2, 3 mM DTT, 5% glycerol, 10°C; agarose gel 1.3% in 0.5x TBE
Conditions: protein: recombinant;recombinant; tags: His, thrombin treated;His (pET28a); copies: 1;1; label: 5' fluorescein (FITC) on forward strand; blunt
Units for pKd: none; it is -log10 of a concentration expressed in mol/L.

Input line: Need pKd, item GATA-RE (canonical) (dsDNA) DNA 1: CACTTGATAACAGAAAGTGATAACTCT DNA 2: AGAGTTATCACTTTCTGTTATCAAGTG
Output line: 6.85

Input line: Name the recorded pKd for TSH GATA-RE (dsDNA) DNA 1: TCAATAGATGCTTTTCAGATAAGAA DNA 2: TTCTTATCTGAAAAGCATCTATTGA .
Output line: 7.41
